Measured IC50 values are reported for all entries that follow.
# Study System: Gamma-secretase
# Assay Procedure: Inhibition of gamma-secretase-mediated notch cleavage in human SNC cells by ELISA
# Format: cell-based

In the examples that follow, each entry is paired with its recorded IC50.
INSERT INTO measurements (compound, test_value) VALUES
  ('O=S(=O)(c1ccc(Cl)cc1)N1Cc2c[nH]nc2CC1c1cncnc1 (centres undefined)', '> 40 µM'),
  ('CN(C)C(=O)OCC1c2c[nH]nc2CCN1S(=O)(=O)c1ccc(Cl)cc1 (racemic)', '> 40 µM'),
  ('O=S(=O)(c1ccc(Cl)cc1)N1CCc2n[nH]cc2C1CO (centres undefined)', '> 40 µM');

Lab note: next compound to report on.
# input Look up IC50 with Gamma-secretase for this compound: CCOC(=O)C1c2c[nH]nc2CCN1S(=O)(=O)c1ccc(Cl)cc1 (centres undefined)
# output 10.3 µM

====

# Study System: Gamma-secretase
# Assay Procedure: Inhibition of gamma-secretase-mediated notch cleavage in human IMR-32 cells after 2 hrs by ELISA
# Assay type: cell-based
Quantity Kind: IC50 (nM)
Please respond with the number in nM and leave the unit unwritten.

In the examples that follow, each entry is paired with its recorded IC50.
INSERT INTO measurements (compound, quantity_kind, unit_of_measurement, test_value) VALUES
  ('O=S(=O)(c1ccc(Cl)cc1)N1CCc2[nH]ncc2C1c1cncnc1 (stereo not drawn)', 'IC50', 'nM', 120),
  ('CC[C@H]1Cc2n[nH]cc2[C@@H](CC)N1S(=O)(=O)c1ccc(Cl)cc1 (racemic) [ENT A]', 'IC50', 'nM', 5);

Lab note: next compound to report on.
# input // lookup IC50 for O=S(=O)(c1ccc(Cl)cc1)N1Cc2cn[nH]c2CC1c1ccc(F)cc1 (racemic)
# output 481

====

# Assay Procedure: Metabolic stability in human liver microsomes assessed as compound remaining after 30 mins in presence of 1 mM UDPGA, 100 mM MgCl2 and 25 ug/ml alamethacin
# Format: ADME, Microsome
# Condition Parameters: liver microsomes, read-out: Stability
Measured remaining at 0.5 h values are reported for all entries that follow.
Respond with a number, then the unit of measure.

INSERT INTO results (molecule, test_value) VALUES
  ('O=S(=O)(c1ccc(Cl)cc1)N1CCc2[nH]ncc2C1c1cncnc1 (centres undefined)', '85%'),
  ('CC[C@H]1Cc2n[nH]cc2[C@@H](CC)N1S(=O)(=O)c1ccc(Cl)cc1 (racemic)', '2%'),
  ('O=S(=O)(c1ccc(Cl)cc1)N1Cc2c[nH]nc2CC1c1ccccc1 (centres undefined)', '8%'),
  ('O=S(=O)(c1ccc(Cl)cc1)N1Cc2c[nH]nc2CC1c1cncnc1 (centres undefined)', '70%'),
  ('CC[C@@H]1c2c[nH]nc2C[C@H](c2ccc(Cl)cc2)N1S(=O)(=O)c1ccc(Cl)cc1 (racemic)', '25%'),
  ('CN(C)C(=O)OCC1c2c[nH]nc2CCN1S(=O)(=O)c1ccc(Cl)cc1 (racemic)', '59%');

# input // lookup remaining at 0.5 h for O=S(=O)(c1ccc(Cl)cc1)N1Cc2cn[nH]c2CC1c1cccc(F)c1 (racemic)
# output 0%

# input How about this molecule: O=S(=O)(c1ccc(Cl)cc1)N1Cc2c[nH]nc2CC1c1cc(F)cc(F)c1 (racemic)
# output 0%

# input How about this molecule: O=S(=O)(c1ccc(Cl)cc1)N1Cc2c[nH]nc2CC1c1nccs1 (racemic)
# output 8%

====

Measured remaining at 0.5 h values are reported for all entries that follow.
# Assay Procedure: Metabolic stability in human liver microsomes assessed as compound remaining after 30 mins in presence of 1 mM NADPH
# Type: ADME, Microsome
# Condition Parameters: liver microsomes, read-out: Stability
Please respond with the number in % and leave the unit unwritten.

In the examples that follow, each entry is paired with its recorded remaining at 0.5 h.
INSERT INTO measurements (molecule, test_value) VALUES
  ('CC[C@@H]1c2c[nH]nc2C[C@H](c2ccc(Cl)cc2)N1S(=O)(=O)c1ccc(Cl)cc1 (racemic)', 4),
  ('O=S(=O)(c1ccc(Cl)cc1)N1Cc2cn[nH]c2CC1c1cccc(F)c1 (racemic)', 14),
  ('CCOC(=O)C1c2c[nH]nc2CCN1S(=O)(=O)c1ccc(Cl)cc1 (stereo not given)', 1),
  ('CCOC(=O)C1Cc2n[nH]cc2CN1S(=O)(=O)c1ccc(Cl)cc1 (stereo not given)', 8);

# input // lookup remaining at 0.5 h for O=S(=O)(c1ccc(Cl)cc1)N1CCc2n[nH]cc2C1CO (stereo not given)
# output 84
